System: Liver
Assay: Stability of compound in human liver S9 fractions assessed as compound remaining at 10 uM incubated for 60 mins by mass spectrometric analysis
Type: ADME, subcellular, Liver S9 fraction
Details: s9, 1 h
Measured Quantity: Stability (%)
API: value field is a number in %; no unit string.

[
  {
    "Smiles Structure": "CCS(=O)(=O)N1CCC(NC(=O)c2nn(-c3ccc(Cl)cc3Cl)c(-c3ccc(Cl)cc3)c2C)CC1",
    "Stability, %": 68
  },
  {
    "Smiles Structure": "Cc1c(C(=O)NC2CCN(C(=O)CC(C)C)CC2)nn(-c2ccc(Cl)cc2Cl)c1-c1ccc(Cl)cc1",
    "Stability, %": 72
  },
  {
    "Smiles Structure": "Cc1c(C(=O)NC2CCN(C(=O)C(F)(F)F)CC2)nn(-c2ccc(Cl)cc2Cl)c1-c1ccc(Cl)cc1",
    "Stability, %": 74
  },
  {
    "Smiles Structure": "Cc1c(C(=O)NC2CCN(C(=O)OC(C)C)CC2)nn(-c2ccc(Cl)cc2Cl)c1-c1ccc(Cl)cc1",
    "Stability, %": 82
  },
  {
    "Smiles Structure": "Cc1c(C(=O)NC2CCN(C(=O)C3CCCC3)CC2)nn(-c2ccc(Cl)cc2Cl)c1-c1ccc(Cl)cc1",
    "Stability, %": 62
  },
  {
    "Smiles Structure": "CCCOC(=O)N1CCC(NC(=O)c2nn(-c3ccc(Cl)cc3Cl)c(-c3ccc(Cl)cc3)c2C)CC1",
    "Stability, %": 66
  }
]

In the following, a different compound is considered.
stdin: # Stability lookup, item CCCCC(=O)N1CCC(NC(=O)c2nn(-c3ccc(Cl)cc3Cl)c(-c3ccc(Cl)cc3)c2C)CC1
stdout: 72
